# Assay type: in vivo, human
# EXPERIMENTAL_CONDITIONS: male, human, plasma, oral, t1/2β, span over dapoxetine alone and with udenafil
VALUE_KIND: half-life

[[record]]
compound = "CN(C)[C@@H](CCOc1cccc2ccccc12)c1ccccc1 [Dapoxetine]"
result = "15.3 to 16.2 h"


---

# Assay type: in vivo, human
# EXPERIMENTAL_CONDITIONS: male, human, plasma, oral, 60 mg
VALUE_KIND: Cmax (ng/mL)

[[record]]
chem_smiles = "CN(C)[C@@H](CCOc1cccc2ccccc12)c1ccccc1"
quantitative_result = 437


---

# Type: in vivo, human
# EXPERIMENTAL_CONDITIONS: male, human, plasma, oral, 60 mg
VALUE_KIND: Tmax (h)

[[record]]
chem_smiles = "CN(C)[C@@H](CCOc1cccc2ccccc12)c1ccccc1"
value_kind = "Tmax"
quantitative_result = 1


---

# Type: in vivo, human
# EXPERIMENTAL_CONDITIONS: male, human, plasma, oral, tmax, udenafil 200 mg + dapoxetine 60 mg; median (min, max), n=22
VALUE_KIND: Tmax (h)

[[record]]
molecule = "CCCOc1ccc(S(=O)(=O)NCCC2CCCN2C)cc1-c1nc2c(CCC)nn(C)c2c(=O)[nH]1 (stereo not shown)"
value_kind = "Tmax"
result_units = "h"
quantitative_result = 2


---

# Type: in vivo, human
# EXPERIMENTAL_CONDITIONS: male, human, plasma, po, 60 mg
VALUE_KIND: AUC(0-t) (µg·h/mL)

[[record]]
chem_smiles = "CN(C)[C@@H](CCOc1cccc2ccccc12)c1ccccc1"
value_kind = "AUC(0-t)"
result_units = "µg·h/mL"
quantitative_result = 2.1


---

# Format: in vivo, human
# EXPERIMENTAL_CONDITIONS: male, human, plasma, oral, 200 mg, t1/2β, udenafil 200 mg alone; mean ± SD, n=22
VALUE_KIND: half-life (h)

[[record]]
molecule = "CCCOc1ccc(S(=O)(=O)NCCC2CCCN2C)cc1-c1nc2c(CCC)nn(C)c2c(=O)[nH]1 (stereo not shown) [Udenafil]"
result_units = "h"
quantitative_result = 11

